Molecular target: Plasmepsin 4 (Plasmodium falciparum)
Sequence (Q17SB2 whole entry): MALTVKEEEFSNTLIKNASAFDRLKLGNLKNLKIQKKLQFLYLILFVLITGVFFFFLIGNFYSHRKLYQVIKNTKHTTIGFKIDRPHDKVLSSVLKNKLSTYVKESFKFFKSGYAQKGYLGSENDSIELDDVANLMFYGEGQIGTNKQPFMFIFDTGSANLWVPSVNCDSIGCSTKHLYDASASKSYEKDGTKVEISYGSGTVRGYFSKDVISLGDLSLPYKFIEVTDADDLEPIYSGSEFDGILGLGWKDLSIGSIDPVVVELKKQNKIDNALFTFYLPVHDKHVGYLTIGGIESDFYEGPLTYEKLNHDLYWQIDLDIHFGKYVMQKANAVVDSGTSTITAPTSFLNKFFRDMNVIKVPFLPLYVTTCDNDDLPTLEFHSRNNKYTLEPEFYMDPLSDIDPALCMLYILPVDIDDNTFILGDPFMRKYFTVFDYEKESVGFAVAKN
readoutLabel: IC50 (µM)

>>> observedmeasurement("CCCN(CCC)C(=O)c1cc(C(=O)N[C@@H](Cc2ccccc2)[C@H](O)CNC(C)(C)c2cccc(OC)c2)cc(C(F)(F)F)c1")
0.015
>>> observedmeasurement("COc1cccc(C(C)(C)NC[C@@H](O)[C@H](Cc2ccccc2)NC(=O)c2cc(C(=O)NCCC(F)(F)F)cc(N3CCCCC3)c2)c1")
0.024
>>> observedmeasurement("COc1cccc(C(C)(C)NC[C@@H](O)[C@H](Cc2ccccc2)NC(=O)c2cc(C(=O)N(CCO)CCO)cc(N3CCCCC3)c2)c1")
0.068
>>> observedmeasurement("COc1cccc(C(C)(C)NC[C@@H](O)[C@H](Cc2ccccc2)NC(=O)c2cc(C(=O)NCC(C)(C)O)cc(N3CCCCC3)c2)c1")
0.1
>>> observedmeasurement("COc1cccc(C(C)(C)NC[C@@H](O)[C@H](Cc2ccccc2)NC(=O)c2cccc(C(=O)NCC(C)(C)C)c2)c1")
0.076
>>> observedmeasurement("COc1cccc(C(C)(C)NC[C@@H](O)[C@H](Cc2ccccc2)NC(=O)c2cc(C(=O)NCCO)cc(N3CCCCC3)c2)c1")
0.21
>>> observedmeasurement("COc1cccc(C(C)(C)NC[C@@H](O)[C@H](Cc2ccccc2)NC(=O)c2cc(C(=O)NCCN(C)C)cc(N3CCCCC3)c2)c1")
0.36
